target: Src (p60c-src, partially purified, Upstate) (Homo sapiens, UniProt P12931)
Sequence (P12931 whole entry): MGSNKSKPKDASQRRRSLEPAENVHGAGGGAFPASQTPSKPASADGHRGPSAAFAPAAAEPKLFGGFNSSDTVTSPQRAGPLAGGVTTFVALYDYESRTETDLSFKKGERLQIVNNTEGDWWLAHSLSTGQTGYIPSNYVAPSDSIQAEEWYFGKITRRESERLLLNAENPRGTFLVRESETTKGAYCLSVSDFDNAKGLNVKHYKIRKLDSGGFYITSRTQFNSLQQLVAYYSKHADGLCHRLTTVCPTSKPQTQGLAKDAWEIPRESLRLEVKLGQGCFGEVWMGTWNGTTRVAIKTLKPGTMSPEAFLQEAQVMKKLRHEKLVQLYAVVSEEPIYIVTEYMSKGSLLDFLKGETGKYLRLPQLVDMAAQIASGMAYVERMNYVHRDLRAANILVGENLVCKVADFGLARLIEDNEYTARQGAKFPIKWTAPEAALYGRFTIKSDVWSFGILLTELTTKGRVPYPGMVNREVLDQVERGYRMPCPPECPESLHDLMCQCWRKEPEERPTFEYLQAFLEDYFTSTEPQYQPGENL
IC50 reference

[
  {
    "MOLECULE": "Cc1ccc(NC(=O)c2cccc(-c3ccccc3)c2)cc1C(=O)Nc1cnc2[nH]c(-c3ccccc3)nc2c1 [Example 1-6]",
    "IC50": "10 to 100 nM"
  },
  {
    "MOLECULE": "Cc1ccc(NC(=O)/C=C/c2cccnc2)cc1C(=O)Nc1cnc2[nH]c(-c3ccccc3)nc2c1 [Example 1-2]",
    "IC50": "10 to 100 nM"
  },
  {
    "MOLECULE": "O=C(Nc1ccc(Cl)c(C(=O)Nc2cnc3[nH]c(-c4ccccc4)nc3c2)c1)c1ccc(N2CCOCC2)cc1 [Example 2-1]",
    "IC50": "10 to 100 nM"
  }
]
